These entries and their values trace back to paper PMC9945864.

- target.of.assay: aldo–keto reductase 1C3 (AKR1C3) (Homo sapiens, UniProt P42330)
- Sequence (P42330 whole entry): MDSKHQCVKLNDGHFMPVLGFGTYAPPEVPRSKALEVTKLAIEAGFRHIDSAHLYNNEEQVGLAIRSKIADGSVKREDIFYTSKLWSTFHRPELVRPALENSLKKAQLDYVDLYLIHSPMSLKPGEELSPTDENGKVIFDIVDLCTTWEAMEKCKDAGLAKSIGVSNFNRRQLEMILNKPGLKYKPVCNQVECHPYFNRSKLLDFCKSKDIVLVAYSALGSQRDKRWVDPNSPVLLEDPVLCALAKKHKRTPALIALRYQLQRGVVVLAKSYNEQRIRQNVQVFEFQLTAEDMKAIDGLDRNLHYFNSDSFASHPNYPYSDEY
pIC50: −log10 of the molar value.
value.type: pIC50

Inquiry: API: value(readout=pIC50, system=aldo–keto reductase 1C3 (AKR1C3) (Homo sapiens, UniProt P42330)) for record C[C@H](CCC(=O)O)[C@H]1CC[C@H]2[C@@H]3CC[C@@H]4C[C@H](O)CC[C@]4(C)[C@H]3Cc3nnnn3[C@]12C
Reply text: ~5.15
